Exercise: state measured inhibition of growth at 5 µM for each of the molecules provided.
- TEST_NAME: Growth inhibition of human PL45 cells at 5 uM after 24 hrs by [3H]thymidine uptake assay
- Type: functional
- MEASUREMENT_CONDITIONS: read-out: GI
All answers are understood in %, so give the number only.

Prompt: Return inhibition of growth at 5 µM (reported value) for this molecule: CC(C)C[C@@H]1NC(=O)[C@H](Cc2ccccc2)NC(=O)[C@@H](CC(C)C)NC(=O)[C@@H](C(C)C)NC(=O)[C@H](CC(C)C)NC(=O)[C@@H](CC(C)C)NC(=O)[C@@H](Cc2ccccc2)NC(=O)[C@@H](CC(C)C)NC(=O)[C@@H](C(C)C)NC(=O)[C@@H](CC(C)C)NC1=O
Completion: 17

Prompt: Return inhibition of growth at 5 µM (reported value) for this molecule: CC(C)C[C@@H]1NC(=O)[C@H](Cc2ccccc2)NC(=O)[C@H](CC(C)C)NC(=O)[C@H](C(C)C)NC(=O)[C@@H](CC(C)C)NC(=O)[C@H](CC(C)C)NC(=O)[C@H](Cc2ccccc2)NC(=O)[C@H](CC(C)C)NC(=O)[C@H](C(C)C)NC(=O)[C@@H](CC(C)C)NC1=O
Completion: 12

Prompt: Return inhibition of growth at 5 µM (reported value) for this molecule: CC(C)C[C@@H]1NC(=O)[C@H](Cc2ccccc2)NC(=O)[C@@H](Cc2ccccc2)N(C)C(=O)[C@@H](C(C)C)NC(=O)[C@H](CC(C)C)NC(=O)[C@H](CC(C)C)NC(=O)[C@H](Cc2ccccc2)NC(=O)[C@@H](Cc2ccccc2)N(C)C(=O)[C@@H](C(C)C)NC(=O)[C@H](CC(C)C)NC1=O
Completion: 10

Prompt: Return inhibition of growth at 5 µM (reported value) for this molecule: CC(C)C[C@@H]1NC(=O)[C@H](Cc2ccccc2)NC(=O)[C@@H](CC(C)C)NC(=O)[C@@H](C(C)C)NC(=O)[C@@H](CC(C)C)NC(=O)[C@H](CC(C)C)NC(=O)[C@@H](Cc2ccccc2)NC(=O)[C@@H](CC(C)C)NC(=O)[C@@H](C(C)C)NC(=O)[C@H](CC(C)C)NC1=O
Completion: 15

Prompt: Return inhibition of growth at 5 µM (reported value) for this molecule: CC(C)C[C@@H]1NC(=O)[C@H](Cc2ccccc2)NC(=O)[C@@H](CC(C)C)NC(=O)[C@@H](C(C)C)NC(=O)[C@@H](CC(C)C)NC(=O)[C@H](CC(C)C)NC(=O)[C@H](Cc2ccccc2)NC(=O)[C@@H](CC(C)C)NC(=O)[C@@H](C(C)C)NC(=O)[C@@H](CC(C)C)NC1=O
Completion: 21

---

- TEST_NAME: Growth inhibition of human WS1 cells after 24 hrs by [3H]thymidine uptake assay
- Format: functional, cell-based
PROPERTY: IC50 (nM)
All answers are understood in nM, so give the number only.

Prompt: Return IC50 (reported value) for this molecule: C=CCNC1=C2C[C@@H](C)C[C@H](OC)[C@H](O)[C@@H](C)/C=C(\C)[C@H](OC(N)=O)[C@@H](OC)/C=C\C=C(/C)C(=O)NC(=CC1=O)C2=O [TANESPIMYCIN]
Completion: 31.8

---

Exercise: state measured inhibition of growth at 5 µM for each of the compounds provided.
- TEST_NAME: Growth inhibition of human PL45 cells at 5 uM after 24 hrs by [3H]thymidine uptake assay
- Format: functional
- MEASUREMENT_CONDITIONS: read-out: GI
All answers are understood in %, so give the number only.

Prompt: Return inhibition of growth at 5 µM (reported value) for this compound: CC(C)C[C@@H]1NC(=O)[C@H](Cc2ccccc2)NC(=O)[C@@H](CC(C)C)NC(=O)[C@H](C(C)C)NC(=O)[C@@H](CC(C)C)NC(=O)[C@H](CC(C)C)NC(=O)[C@H](Cc2ccccc2)NC(=O)[C@@H](CC(C)C)NC(=O)[C@H](C(C)C)NC(=O)[C@@H](CC(C)C)NC1=O
Completion: 9

Prompt: Return inhibition of growth at 5 µM (reported value) for this compound: CC(C)C[C@@H]1NC(=O)[C@H](Cc2ccccc2)NC(=O)[C@@H](CC(C)C)NC(=O)[C@@H](C(C)C)NC(=O)[C@H](CC(C)C)NC(=O)[C@@H](CC(C)C)NC(=O)[C@H](Cc2ccccc2)NC(=O)[C@@H](CC(C)C)NC(=O)[C@@H](C(C)C)NC(=O)[C@@H](CC(C)C)NC1=O
Completion: 4

Prompt: Return inhibition of growth at 5 µM (reported value) for this compound: CC(C)C[C@@H]1NC(=O)[C@H](C(C)C)NC(=O)[C@H](CC(C)C)NC(=O)[C@@H](CC(C)C)NC(=O)[C@@H](Cc2ccccc2)NC(=O)[C@H](CC(C)C)NC(=O)[C@H](C(C)C)NC(=O)[C@H](CC(C)C)NC(=O)[C@@H](CC(C)C)NC(=O)[C@@H](Cc2ccccc2)NC1=O
Completion: 12

Prompt: Return inhibition of growth at 5 µM (reported value) for this compound: CC(C)C[C@@H]1NC(=O)[C@H](Cc2ccccc2)NC(=O)[C@@H](CC(C)C)NC(=O)[C@@H](C(C)C)NC(=O)[C@H](CC(C)C)NC(=O)[C@H](CC(C)C)NC(=O)[C@H](Cc2ccccc2)NC(=O)[C@@H](CC(C)C)NC(=O)[C@@H](C(C)C)NC(=O)[C@H](CC(C)C)NC1=O
Completion: 99

---

- TEST_NAME: Growth inhibition of human PL45 cells at 5 uM after 24 hrs by [3H]thymidine uptake assay
- Type: functional
- MEASUREMENT_CONDITIONS: read-out: GI
Exercise: state measured inhibition of growth at 5 µM for each of the molecules provided.
All answers are understood in %, so give the number only.

Prompt: Return inhibition of growth at 5 µM (reported value) for this molecule: CC(C)C[C@@H]1NC(=O)[C@H](C(C)C)NC(=O)[C@@H](CC(C)C)NC(=O)[C@@H](CC(C)C)NC(=O)[C@H](Cc2ccccc2)NC(=O)[C@H](CC(C)C)NC(=O)[C@H](C(C)C)NC(=O)[C@@H](CC(C)C)NC(=O)[C@@H](CC(C)C)NC(=O)[C@H](Cc2ccccc2)NC1=O
Completion: 48

Prompt: Return inhibition of growth at 5 µM (reported value) for this molecule: CC(C)C[C@@H]1NC(=O)[C@H](C(C)C)NC(=O)[C@@H](CC(C)C)NC(=O)[C@@H](Cc2ccccc2)NC(=O)[C@H](Cc2ccccc2)NC(=O)[C@H](CC(C)C)NC(=O)[C@H](C(C)C)NC(=O)[C@@H](CC(C)C)NC(=O)[C@@H](Cc2ccccc2)NC(=O)[C@H](Cc2ccccc2)NC1=O
Completion: 10

Prompt: Return inhibition of growth at 5 µM (reported value) for this molecule: CC(C)C[C@@H]1NC(=O)[C@@H](Cc2ccccc2)NC(=O)[C@@H](CC(C)C)NC(=O)[C@@H](C(C)C)NC(=O)[C@@H](CC(C)C)NC(=O)[C@H](CC(C)C)NC(=O)[C@@H](Cc2ccccc2)NC(=O)[C@@H](CC(C)C)NC(=O)[C@@H](C(C)C)NC(=O)[C@@H](CC(C)C)NC1=O
Completion: 79

Prompt: Return inhibition of growth at 5 µM (reported value) for this molecule: CC(C)C[C@@H]1NC(=O)[C@H](Cc2ccccc2)NC(=O)[C@@H](Cc2ccccc2)NC(=O)[C@@H](C(C)C)NC(=O)[C@H](CC(C)C)NC(=O)[C@H](CC(C)C)NC(=O)[C@H](Cc2ccccc2)NC(=O)[C@@H](Cc2ccccc2)NC(=O)[C@@H](C(C)C)NC(=O)[C@H](CC(C)C)NC1=O
Completion: 13

---

- TEST_NAME: Growth inhibition of human PL45 cells at 5 uM after 24 hrs by [3H]thymidine uptake assay
- Format: functional
- MEASUREMENT_CONDITIONS: read-out: GI
Residues, ends and D or L forms follow the SMILES beside them.
PROPERTY: inhibition of growth at 5 µM

Prompt: Return inhibition of growth at 5 µM (reported value) for this compound: CC(C)C[C@@H]1NC(=O)[C@H](CC(C)C)NC(=O)[C@@H](Cc2ccccc2)NC(=O)[C@@H](CC(C)C)NC(=O)[C@@H](C(C)C)NC(=O)[C@H](CC(C)C)NC(=O)[C@H](CC(C)C)NC(=O)[C@@H](Cc2ccccc2)NC(=O)[C@@H](CC(C)C)NC(=O)[C@@H](C(C)C)NC1=O
Completion: 10%

Prompt: Return inhibition of growth at 5 µM (reported value) for this compound: CC(C)C[C@@H]1NC(=O)[C@H](CC(C)C)NC(=O)[C@@H](Cc2ccccc2)NC(=O)[C@@H](CC(C)C)NC(=O)[C@H](C(C)C)NC(=O)[C@H](CC(C)C)NC(=O)[C@H](CC(C)C)NC(=O)[C@@H](Cc2ccccc2)NC(=O)[C@@H](CC(C)C)NC(=O)[C@H](C(C)C)NC1=O
Completion: 36%

Prompt: Return inhibition of growth at 5 µM (reported value) for this compound: CC(C)C[C@@H]1NC(=O)[C@H](CC(C)C)NC(=O)[C@@H](Cc2ccccc2)NC(=O)[C@H](CC(C)C)NC(=O)[C@H](C(C)C)NC(=O)[C@H](CC(C)C)NC(=O)[C@H](CC(C)C)NC(=O)[C@@H](Cc2ccccc2)NC(=O)[C@H](CC(C)C)NC(=O)[C@H](C(C)C)NC1=O
Completion: 11%

Prompt: Return inhibition of growth at 5 µM (reported value) for this compound: CC(C)C[C@@H]1NC(=O)[C@H](Cc2ccccc2)NC(=O)[C@H](CC(C)C)NC(=O)[C@H](C(C)C)NC(=O)[C@H](CC(C)C)NC1=O (cyclo(FLLVL))
Completion: 25%
